# Test system: Ipomoea hederaceae (IPOHE)
# procedure_text: Pre-emergence biological efficacy, glasshouse, 1000 g/ha, evaluated after 13 days (100=total damage to plant; 0=no damage to plant)
# Assay type: in vivo
# experimental_context: Ipomoea, 312 h, rate 1,000 g/ha, read-out: Percentage damage caused to weed species, pre-emergence, IPOHE
metric: pest or weed control at 1000 g/ha (%)
Answer in %, number only, no unit symbol.

Prompt line: Quick check: pest or weed control at 1000 g/ha on Ipomoea hederaceae (IPOHE), item COC(=O)c1nc(-c2ccc(Cl)c(F)c2)nc2c1ccn2Cc1ccccc1[N+](=O)[O-] ?
Response line: 0

Prompt line: Quick check: pest or weed control at 1000 g/ha on Ipomoea hederaceae (IPOHE), item COC(=O)c1nc(-c2ccc(Cl)c(F)c2)cc2[nH]cc(C)c12 ?
Response line: 80

Prompt line: Quick check: pest or weed control at 1000 g/ha on Ipomoea hederaceae (IPOHE), item CCOC(=O)c1nc(-c2ccc(Cl)c(OC)c2F)cc2[nH]cc(C)c12 ?
Response line: 90

Prompt line: Quick check: pest or weed control at 1000 g/ha on Ipomoea hederaceae (IPOHE), item COC(=O)c1nc(C2CC2)nc2c1NC(c1ccccc1)C(c1ccccc1)N2 (centres unmarked) ?
Response line: 20

Prompt line: Quick check: pest or weed control at 1000 g/ha on Ipomoea hederaceae (IPOHE), item COC(=O)c1nc(-c2ccc(Cl)c(OC)c2F)nc2c1c(C)cn2C ?
Response line: 50

Prompt line: Quick check: pest or weed control at 1000 g/ha on Ipomoea hederaceae (IPOHE), item COC(=O)c1nc(-c2ccc(Cl)c(OC)c2F)nc2c1c(C)cn2S(C)(=O)=O ?
Response line: 0

Prompt line: Quick check: pest or weed control at 1000 g/ha on Ipomoea hederaceae (IPOHE), item COc1c(Cl)ccc(-c2nc(C(=O)O)c3c(n2)N(C(C)C)CCN3C(C)C)c1F ?
Response line: 10

Prompt line: Quick check: pest or weed control at 1000 g/ha on Ipomoea hederaceae (IPOHE), item C=CCOC(=O)c1nc(-c2ccc(Cl)c(OC)c2F)nc2[nH]cc(C)c12 ?
Response line: 0

Prompt line: Quick check: pest or weed control at 1000 g/ha on Ipomoea hederaceae (IPOHE), item COC(=O)c1nc(-c2ccc(Cl)c(OC)c2F)nc2c1NC(C)C(C)N2 (centres unmarked) ?
Response line: 0

Prompt line: Quick check: pest or weed control at 1000 g/ha on Ipomoea hederaceae (IPOHE), item COC(=O)c1nc(-c2ccc(Cl)c(OC)c2F)cc2c1c(C)cn2S(=O)(=O)c1ccc(C)cc1 ?
Response line: 0

Prompt line: Quick check: pest or weed control at 1000 g/ha on Ipomoea hederaceae (IPOHE), item COC(=O)c1nc(-c2ccc(Cl)c(OC)c2F)nc2[nH]c(-c3ccccc3)c(C)c12 ?
Response line: 0

Prompt line: Quick check: pest or weed control at 1000 g/ha on Ipomoea hederaceae (IPOHE), item COc1c(Cl)ccc(-c2nc(C(=O)OC(C)C)c3c(C)c[nH]c3n2)c1F ?
Response line: 20

Prompt line: Quick check: pest or weed control at 1000 g/ha on Ipomoea hederaceae (IPOHE), item COC(=O)c1nc(-c2ccc(Cl)c(N(C)C)c2F)nc2[nH]cc(C)c12 ?
Response line: 0

Prompt line: Quick check: pest or weed control at 1000 g/ha on Ipomoea hederaceae (IPOHE), item COC(=O)c1nc(-c2ccc(Cl)c(OC)c2F)nc2[nH]cc(C)c12 ?
Response line: 100

Prompt line: Quick check: pest or weed control at 1000 g/ha on Ipomoea hederaceae (IPOHE), item COC(=O)c1nc(-c2ccc(Cl)c(OC)c2F)cc2c1c(C)cn2C(=O)OC ?
Response line: 0

Prompt line: Quick check: pest or weed control at 1000 g/ha on Ipomoea hederaceae (IPOHE), item Cc1cc2c(C(=O)O)nc(-c3ccc(Cl)c(F)c3)nc2n1Cc1ccccc1[N+](=O)[O-] ?
Response line: 0

Prompt line: Quick check: pest or weed control at 1000 g/ha on Ipomoea hederaceae (IPOHE), item COc1c(Cl)ccc(-c2cc3[nH]cc(C)c3c(C(=O)OCC3CCCO3)n2)c1F (centres unmarked) ?
Response line: 50
